Origin of values: PubChem BioAssay AID204

Test system: BDF1 mice, P288 methotrexate-resistant leukemia, survival T/C
METHOD_DESCRIPTION: NCI In Vivo Anticancer Drug Screen. Data for tumor model P288 Lymphocytic Leukemia resistant to methotrexate; NSC 740 (intraperitoneal) in B6D2F1 (BDF1) mice
PARTICULARS: endpoint: median survival time; dose: 2.0 mg/kg/injection; schedule: Q01DX010 (ip); vehicle: saline
Toxic doses and inconclusive results are not listed. Rule for the calls: active = survival T/C of 150% or more; inactive = T/C below 125% in these data.
Please reply with one of these outcomes: 1 (yes) (active), 0 (no) (inactive)

For orientation, consider the following solved cases.
INSERT INTO measurements (molecule, classification) VALUES
  ('O=C(Nc1ccc(NC2=NCCN2)cc1)c1ccc(C(=O)Nc2ccc(NC3=NCCN3)cc2)cc1', '1 (yes)'),
  ('Nc1ncnc2c1ccn2C1OC(CO)C(O)C1O (centres undefined)', '0 (no)'),
  ('CCCCn1cnc2c(=S)nc[nH]c21', '0 (no)');

Here is the next item to consider.
[ask] Which result was noted for this molecule in the test: "CCN(CC)c1ccc2cc3ccc(=[N+](CC)CC)cc-3oc2c1"
[reply] 0 (no)
